- Test system: Plasmodium falciparum
- PROCEDURE DETAILS: Calibr Malaria Delayed Death Assay SOP
- Format: functional, organism-based
- Parameters: scale not given: in the data most compounds retested in dose-response had high values
- RUN PARAMETERS: concentration 4.99e-06 (unit not given; other assays of the set use mol/L)
About 1,200 (3.2%) of roughly 38,000 compounds showed an effect of 50% or more. The median lay at about -58%. This is one part of a sample in which strong results are shown more often than they occur.
In plain terms, low Percent Effect, meaning strictly below -60%, gives Yes, and everything else gives No.

1) COCCN1CCN(CC(O)c2ccc(C(F)(F)F)cc2)CC1 (stereo unspecified)    No
2) COc1ccc(CNCCC(=O)N2CCc3sccc3C2)cc1O    No
3) O=C1CC2(CCSC2)C(=O)N1Cc1coc(-c2ccccc2)n1 (stereo unspecified)    Yes
4) CN1CCC2(CC1)CN(C(=O)c1cccnc1)c1ccc(Cl)cc12    No

Ask: # strict comparison: is reported Percent Effect < -60%? input = O=C(CCNCc1cccc(O)c1)N1CCc2sccc2C1
Result: No

Ask: # strict comparison: is reported Percent Effect < -60%? input = Cc1c(Cl)cccc1S(=O)(=O)N1CCC2(CC1)OCCS2
Result: Yes

Ask: # strict comparison: is reported Percent Effect < -60%? input = N#Cc1cccc(CNCCC(=O)N2CCc3sccc3C2)c1
Result: No

Reference source: ChEMBL document CHEMBL3988442
